molecules and their reported IC50
# target_or_test_system: KRAS Q61H (Homo sapiens (Human), UniProt P01116+P62937, Q61H)
# Sequence (P01116-2 other isoform, or with tags, fused parts or gaps Q61H): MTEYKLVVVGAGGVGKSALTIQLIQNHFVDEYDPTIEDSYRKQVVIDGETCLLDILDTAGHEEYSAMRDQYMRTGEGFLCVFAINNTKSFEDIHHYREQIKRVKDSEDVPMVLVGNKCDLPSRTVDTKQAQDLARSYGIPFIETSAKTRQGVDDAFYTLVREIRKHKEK
# Sequence (P62937 whole entry): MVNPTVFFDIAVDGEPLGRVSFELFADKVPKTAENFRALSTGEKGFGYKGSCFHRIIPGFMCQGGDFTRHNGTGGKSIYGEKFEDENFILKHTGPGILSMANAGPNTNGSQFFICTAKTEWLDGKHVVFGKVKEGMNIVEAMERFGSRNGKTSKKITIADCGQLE
# test_name: Ras-Raf (BRAF RBD) disruption / FRET / MOA assay, KRAS Q61H
# Type: biochemical
# condition_summary: Ras-Raf disruption/FRET/MOA assay; class symbols; read-out: KRAS Q61H FRET data IC50

Consider the reported IC50 for these molecules:
- molecule: "C=CC(=O)N(C)[C@@H]1C[C@H]1N(C)C(=O)N(C)[C@H](C(=O)N[C@H]1Cc2nc(cs2)-c2ccc3c(c2)c(c(-c2cccnc2[C@H](C)OC)n3CC)CC(C)(C)COC(=O)[C@@H]2CCCN(N2)C1=O)C(C)C (atropisomer, axis not shown)"
  target_or_test_system: "KRAS Q61H (Homo sapiens (Human), UniProt P01116+P62937, Q61H)"
  recorded_value: "10 to 100 nM"
- molecule: "C=CC(=O)N1CC[C@H]2[C@@H](C1)CN2C(=O)N(C)[C@H](C(=O)N[C@H]1Cc2nc(cs2)-c2ccc3c(c2)c(c(-c2cccnc2[C@H](C)OC)n3CC)CC(C)(C)COC(=O)[C@@H]2CCCN(N2)C1=O)C(C)C (atropisomer, axis not shown)"
  target_or_test_system: "KRAS Q61H (Homo sapiens (Human), UniProt P01116+P62937, Q61H)"
  recorded_value: "10 to 100 nM"

Data request: Suppose we examine the molecule `C=CC(=O)N1CC[C@H](C(=O)N(C)[C@H](C(=O)N[C@H]2Cc3cc(O)cc(c3)-c3ccc4c(c3)c(c(-c3ccccc3N3CCOCC3)n4CC)CC(C)(C)COC(=O)[C@@H]3CCCN(N3)C2=O)C(C)C)C1` ; what IC50 value has been reported?
Data returned: 1000 to 10000 nM

Data request: Suppose we examine the molecule C=CC(=O)N(C)[C@H]1CC1N(C)C(=O)N(C)[C@H](C(=O)N[C@H]1Cc2nc(cs2)-c2ccc3c(c2)c(c(-c2cccnc2[C@H](C)OC)n3CC)CC(C)(C)COC(=O)[C@@H]2CCCN(N2)C1=O)C(C)C (stereo partly shown) ; what IC50 value has been reported?
Data returned: 100 to 1000 nM

All figures here come from patent US11566007B2.
